Substrate: C1O[C@H]1[C@H]1CO1
assay remarks: purified protein
measurement parameters: 5 mM GSH, 0.10 M Tris-HCl pH 7.7, 37 °C, 1 h
Lab note: compare kcat/Km with 70 M⁻¹ s⁻¹, writing Criterion met if less and Criterion not met if equal or more.

Record excerpt, results attached:
protein	category label
human GST T1-1 (Homo sapiens) (protein) GLELYLDLLSQPCRAVYIFAKKNDIPFELRIVDLIKGQHLSDAFAQVNPLKKVPALKDGDFTLTESVAILLYLTRKYKVPDYWYPQDLQARARVDEYLAWQHTTLRRSCLRALWHKVMFPVFLGEPVSPQTLAATLAELDVTLQLLEDKFLQNKAFLTGPHISLADLVAITELMHPVGAGCQVFEGRPKLATWRQRVEAAVGEDLFQEAHEVILKAKDFPPADPTIKQKLMPWVLAMIR	Criterion met
human GST P1-1 (Homo sapiens) (protein) PPYTVVYFPVRGRCAALRMLLADQGQSWKEEVVTVETWQEGSLKASCLYGQLPKFQDGDLTLYQSNTILRHLGRTLGLYGKDQQEAALVDMVNDGVEDLRCKYISLIYTNYEAGKDDYVKALPGQLKPFETLLSQNQGGKTFIVGDQISFADYNLLDLLLIHEVLAPGCLDAFPLLSAYVGRLSARPKLKAFLASPEYVNLPINGNGKQ	Criterion met

A record lists human GST M1-1 (Homo sapiens) (protein) PMILGYWDIRGLAHAIRLLLEYTDSSYEEKKYTMGDAPDYDRSQWLNEKFKLGLDFPNLPYLIDGAHKITQSNAILCYIARKHNLCGETEEEKIRVDILENQTMDNHMQLGMICYNPEFEKLKPKYLEELPEKLKLYSEFLGKRPWFAGNKITFVDFLVYDVLDLHRIFEPKCLDAFPNLKDFISRFEGLEKISAYMKSSRFLPRPVFSKMAVWGNK . Is its kcat/Km below 70 M⁻¹ s⁻¹?
Criterion not met

A record lists human GST A3-3 (Homo sapiens) (protein) AGKPKLHYFNGRGRMEPIRWLLAAAGVEFEEKFIGSAEDLGKLRNDGSLMFQQVPMVEIDGMKLVQTRAILNYIASKYNLYGKDIKERALIDMYTEGMADLNEMILLLPLCRPEEKDAKIALIKEKTKSRYFPAFEKVLQSHGQDYLVGNKLSRADISLVELLYYVEELDSSLISNFPLLKALKTRISNLPTVKKFLQPGSPRKPPADAKALEEARKIFRF . Is its kcat/Km below 70 M⁻¹ s⁻¹?
Criterion met
